# PROTOCOL: Pharmacokinetic evaluation in rats
# Type: in vivo
# CONDITION_NOTES: male, SD; nucleoside (compound 4) in rat plasma; iv 2.0 mg/kg
# Experimental: Male SD rats were fasted before the experiment (except for the intravenous group, which was not fasted), with free access to water, and were fed uniformly 2 h after administration. […] The concentration of nucleoside (compound 4) in the plasma was determined by the LC-MS-MS method, and pharmacokinetic parameters were calculated.
METRIC: AUC(0-inf) (ng·h/mL)

>>> readout_number("[2H]c1cc([C@]2(C#N)O[C@H](CO)[C@@H](O)[C@H]2O)n2ncnc(N)c12 [Compound 4]")
1790

Data origin, for the record: patent US20260256796A1
